System: Klebsiella pneumoniae
ASSAY DETAILS: Antibacterial activity against Klebsiella pneumoniae GN69 by agar dilution method
Format: functional
I'd appreciate it if you could supply MIC values for the items below.
I only need the number, in µg/mL, no unit after it.

Asked: Sample C[C@@H](O)[C@H]1C(=O)N2C(C(=O)O)=C(c3cn4cnc(C(=O)c5cn(C)c6ccccc56)c4s3)[C@H](C)[C@H]12 — what was its MIC?
Given back: 8

Asked: Similarly, C[C@@H](O)[C@H]1C(=O)N2C(C(=O)[O-])=C(c3cn4cnc(C(=O)c5ccc[n+](C)c5)c4s3)[C@H](C)[C@H]12 ?
Given back: 0.063

Asked: Similarly, C[C@@H](O)[C@H]1C(=O)N2C(C(=O)O)=C(c3cn4cnc(C(=O)[C@@H]5CCCN5)c4s3)[C@H](C)[C@H]12 ?
Given back: 0.125

Asked: Similarly, C[C@@H](O)[C@H]1C(=O)N2C(C(=O)[O-])=C(c3cn4cnc(C(=O)c5ccc[n+](CCN(C)C)c5)c4s3)[C@H](C)[C@H]12 ?
Given back: 0.25
